src = paper doi:10.1101/2024.08.25.609621

Target: SARS-CoV-2 NSP3 macrodomain (Mac1), P43 crystal form (Severe acute respiratory syndrome coronavirus 2)
Assay type: binding
Conditions: PanDDA background density correction
measured-attribute: 1-BDC
Answer as a number with no unit attached.

1) OCC(CC1OCCO1)Nc1ncnc2[nH]ccc12 (stereo not shown) [AVI-3658] : 0.2
2) OCC(Nc1ncnc2[nH]ccc12)C1CCC1 (stereo not shown) [AVI-3638] : 0.13
3) O=C(O)C(F)(F)F.OCC12CC(CN1c1ncnc3[nH]ccc13)C2 [AVI-3681] : 0.22

Lookup: Name the reported 1-BDC value associated with the compound CC1CCN(c2ncnc3[nH]ccc23)C1CO (stereo not shown) [AVI-3655]
Found: 0.21

Lookup: What 1-BDC value was documented for this compound, OCC(Cc1ccccc1)Nc1ncnc2[nH]ccc12 (stereo not shown) [AVI-313] ?
Found: 0.18

Lookup: Please report the recorded 1-BDC for O=C(O)C(F)(F)F.OC[C@@H]1CC2(CC2)CN1c1ncnc2[nH]ccc12 [AVI-3710] .
Found: 0.26

Lookup: I have this compound here, CC(C)(C)CC(CO)Nc1ncnc2[nH]ccc12 (stereo not shown) [AVI-3648] , and I need its recorded 1-BDC.
Found: 0.13

Lookup: Given the entry CCC(Nc1ncnc2[nH]ccc12)C(C)O (stereo not shown) [AVI-3635] , report its measured 1-BDC.
Found: 0.14

Lookup: # lookup: 1-BDC of CC1(C)C[C@@H](CO)N(c2ncnc3[nH]ccc23)C1.O=C(O)C(F)(F)F [AVI-3704]
Found: 0.33

Lookup: Fill in: 1-BDC of O[C@@H]1CN(c2ncnc3[nH]ccc23)C[C@H]1F [AVI-616] is ___
Found: 0.2

Lookup: # lookup: 1-BDC of CCC(CC)(CO)Nc1ncnc2[nH]ccc12 [AVI-3695]
Found: 0.12

Lookup: Please look up its 1-BDC: CC(C)C1CCCN1c1ncnc2[nH]ccc12 (stereo not shown) [AVI-5216]
Found: 0.13

Lookup: Value lookup for 1-BDC; key = Cc1c[nH]c2ncnc(NCC3(O)CCC(C)CC3)c12 (stereo not shown) [AVI-4331]
Found: 0.27

Lookup: Which 1-BDC is reported for this compound? OC1CCC(O)(CNc2ncnc3[nH]ccc23)CC1 (stereo not shown) [AVI-6220]
Found: 0.07

Lookup: // query 1-BDC value for entry O=C(O)C(F)(F)F.OCC1(Nc2ncnc3[nH]ccc23)CC1 [AVI-3688]
Found: 0.2

Lookup: Param item = O=S1(=O)CCCC(O)(CNc2ncnc3[nH]ccc23)C1 (stereo not shown) [AVI-4317] ; retrieve measured 1-BDC.
Found: 0.43

Lookup: Return reported 1-BDC; argument: OCC1COCCN1c1ncnc2[nH]ccc12 (stereo not shown) [AVI-3717]
Found: 0.14

Lookup: # lookup: 1-BDC of OCC1CC2(CCCC2)CN1c1ncnc2[nH]ccc12 (stereo not shown) [AVI-3708]
Found: 0.32

Lookup: Entry OCC(Cc1ccccn1)Nc1ncnc2[nH]ccc12 (stereo not shown) [AVI-3696] has what 1-BDC?
Found: 0.13

Lookup: Data request, read-out 1-BDC, for Cn1cc(CC(CO)Nc2ncnc3[nH]ccc23)cn1 (stereo not shown) [AVI-3657]
Found: 0.15

Lookup: Using the record for OC(c1ccccc1)C1CCCN1c1ncnc2[nH]ccc12 (stereo not shown) [AVI-3652] , report its 1-BDC.
Found: 0.22

Lookup: Suppose we examine the compound OCC1CC2(CCOCC2)CN1c1ncnc2[nH]ccc12 (stereo not shown) [AVI-3707] ; what 1-BDC value has been reported?
Found: 0.21

Lookup: Look up 1-BDC for this compound: OCC(Nc1ncnc2[nH]ccc12)C1CC1 (stereo not shown) [AVI-3651]
Found: 0.18

Lookup: Consider the compound CC(C)(O)[C@H]1CCCN1c1ncnc2[nH]ccc12 [AVI-607] and give its measured 1-BDC.
Found: 0.44

Lookup: Item under review: OCC(CC1CCC1)Nc1ncnc2[nH]ccc12 (stereo not shown) [AVI-3641] . Reported 1-BDC?
Found: 0.18
